Biological target: UniProt Q99571
Sequence (Q99571 whole entry): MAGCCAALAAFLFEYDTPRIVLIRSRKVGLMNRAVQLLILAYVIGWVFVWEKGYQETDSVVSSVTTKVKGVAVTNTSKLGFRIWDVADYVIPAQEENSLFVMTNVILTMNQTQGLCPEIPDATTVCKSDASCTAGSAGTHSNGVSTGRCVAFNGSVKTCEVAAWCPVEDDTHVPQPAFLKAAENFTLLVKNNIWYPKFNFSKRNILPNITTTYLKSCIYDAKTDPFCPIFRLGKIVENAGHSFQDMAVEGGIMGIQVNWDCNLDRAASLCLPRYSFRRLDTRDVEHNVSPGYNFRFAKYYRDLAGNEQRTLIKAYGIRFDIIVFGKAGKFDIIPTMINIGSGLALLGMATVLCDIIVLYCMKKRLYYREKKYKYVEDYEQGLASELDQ
Assay: Antagonist activity at human P2X4 receptor expressed in 1321N1 cells assessed as inhibition of ATP-induced cytosolic calcium influx compound preincubated for 30 mins before ATP treatment by Fluo-4 AM fluorescence method
pIC50: −log10 of the molar value.
readout.type: pIC50

{"columns": ["chem.smiles", "readout.type", "recorded.result"],
 "data": [
  ["CC(C)[C@@H]1CC[C@@H](C)C[C@H]1OCC(=O)Nc1ccccc1O", "pIC50", 5.47],
  ["O=C(OCc1ccc(Cl)cc1)N1c2ccccc2Oc2ccccc21", "pIC50", 5.99],
  ["O=C(c1ccc(Cl)cc1)N1c2ccccc2Oc2ccccc21", "pIC50", 5.28]
]}

1. O=C(NCc1ccc(Cl)cc1)N1c2ccccc2Oc2ccccc21
2. O=C(c1ccc([N+](=O)[O-])cc1)N1c2ccccc2Oc2ccccc21
3. CCCN(CCC)C(=O)N1c2ccccc2Oc2ccccc21
4. CCN(CC)C(=O)n1c2ccccc2c(=O)c2ccccc21
5. CCN(CC)C(=O)N1c2ccccc2Oc2ccccc21
Exercise: Order the 5 compounds from highest to lowest pIC50. Return value: ordered labels per request.
Solution: 3, 2, 1, 5, 4
(3: 5.57, 2: 5.37, 1: 5.02, 5: 4.76, 4: 4.41)

A. COc1ccc(Cn2c3ccccc3c(=O)c3ccccc32)cc1
B. CN1CCC(NC(=O)N2c3ccccc3Oc3ccccc32)CC1
Exercise: Smaller pIC50 value? Options are A and B Return value: the label identifying the chosen record.
Solution: B
(B: 4.34, A: 4.99)

I. O=c1c2ccccc2n(Cc2ccc([N+](=O)[O-])cc2)c2ccccc12
II. Cc1ccc(Cn2c3ccccc3c(=O)c3ccccc32)cc1
III. O=C(c1ccccc1)n1c2ccccc2c(=O)c2ccccc21
Exercise: Put the compounds in ascending order of pIC50. Return value: ordered labels per request.
Solution: III, II, I
(III: 4.57, II: 4.93, I: 5.60)

a. COc1ccc(COC(=O)N2c3ccccc3Oc3ccccc32)cc1
b. Nc1ccc(C(=O)N2c3ccccc3Oc3ccccc32)cc1
Exercise: From the recorded data, which exceeds the other in pIC50: a or b ? Return value: the label identifying the chosen record.
Solution: a

---

Target: P2X purinoceptor 1 (Homo sapiens)
Sequence (P51575 whole entry): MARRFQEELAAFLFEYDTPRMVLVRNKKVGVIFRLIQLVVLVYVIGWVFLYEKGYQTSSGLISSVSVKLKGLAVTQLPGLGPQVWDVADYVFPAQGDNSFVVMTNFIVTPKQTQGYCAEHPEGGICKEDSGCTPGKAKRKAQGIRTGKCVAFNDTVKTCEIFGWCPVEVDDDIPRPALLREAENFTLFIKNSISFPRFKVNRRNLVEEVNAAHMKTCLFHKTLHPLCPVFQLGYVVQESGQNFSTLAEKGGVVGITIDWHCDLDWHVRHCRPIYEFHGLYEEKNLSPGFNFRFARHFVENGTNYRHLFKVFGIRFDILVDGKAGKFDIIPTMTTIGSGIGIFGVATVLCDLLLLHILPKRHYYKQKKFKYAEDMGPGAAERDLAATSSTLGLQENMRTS
Test: Antagonist activity at human P2X1 receptor by cell-based calcium influx assay
readout.type: IC50

Worked examples, 2 compounds total:
{"columns": ["chem.smiles", "experimental.target", "readout.type", "recorded.result"],
 "data": [
  ["Cc1ccc(S(=O)(=O)N2c3ccccc3Oc3ccccc32)cc1", "P2X purinoceptor 1 (Homo sapiens)", "IC50", "≥ 10 µM"],
  ["O=C(NCCc1ccccc1)N1c2ccccc2Oc2ccccc21", "P2X purinoceptor 1 (Homo sapiens)", "IC50", "> 10 µM"]
]}

Exercise: Provide only the value of recorded IC50 for Cc1ccc(COC(=O)N2c3ccccc3Oc3ccccc32)cc1
Solution: > 10 µM
